Measured CC50 of individual entries
- Tested on: MT4 cells
- assay.name: Cytotoxicity in uninfected MT4 cells
- measurement.setup: read-out: MT4 cells CC50

molecule: CSc1ccccc1C1CCCN1C(=O)CNC(=O)NCc1ccc(N)cc1 (stereo not drawn) [Compound 27]
CC50: > 53 µM
//
molecule: Nc1ccc(CNC(=O)NCC(=O)N2CCCC2c2ccccc2Br)cc1 (stereo not drawn) [Compound 26]
CC50: > 53 µM

Next molecule, please.
Q) Tell me measured CC50 for CSCCC(NC(=O)NCc1ccc(N)cc1)C(=O)N1CCCC1c1ccccc1SC.O=C(O)C(F)(F)F (stereo not drawn) [Compound 30] please.
A) > 53 µM

----------
- system.under.test: CYP2C19 (Homo sapiens, UniProt P33261)
- Sequence (P33261 whole entry): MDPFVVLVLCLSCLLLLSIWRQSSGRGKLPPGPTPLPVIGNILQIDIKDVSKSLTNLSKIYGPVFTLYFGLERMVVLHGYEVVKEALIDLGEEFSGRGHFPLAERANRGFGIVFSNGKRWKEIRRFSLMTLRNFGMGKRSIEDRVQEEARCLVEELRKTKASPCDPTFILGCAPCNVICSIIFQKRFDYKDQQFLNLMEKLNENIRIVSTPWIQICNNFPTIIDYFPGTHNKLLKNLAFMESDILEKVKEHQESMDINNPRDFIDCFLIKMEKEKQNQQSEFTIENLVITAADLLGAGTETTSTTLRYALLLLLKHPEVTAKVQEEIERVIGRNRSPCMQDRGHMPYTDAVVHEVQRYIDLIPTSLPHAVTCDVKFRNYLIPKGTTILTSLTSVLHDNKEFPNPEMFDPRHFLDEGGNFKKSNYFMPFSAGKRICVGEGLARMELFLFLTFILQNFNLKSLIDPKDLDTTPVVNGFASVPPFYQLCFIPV
- assay.name: Cytochrome P450 enzyme inhibition assay, CYP2C19
- Assay type: in vitro ADME
- Set-up: incubated with human hepatic microsomal fractions and NADPH; from tissue; host or cells: human hepatic microsomal fractions
- measurement.setup: human hepatic microsomal fractions, up to 25 μM
readout.type: IC50

Q) Read the entry CSCCC(NC(=O)NCc1ccc(N)cc1)C(=O)N1CCCC1c1ccccc1SC.O=C(O)C(F)(F)F (stereo not shown) and write its reported IC50.
A) > 25 µM

----------
# reported IC50; entries follow
- system.under.test: CypD (Homo sapiens, UniProt P30405, K175I)
- Sequence (P30405 44-207 K175I): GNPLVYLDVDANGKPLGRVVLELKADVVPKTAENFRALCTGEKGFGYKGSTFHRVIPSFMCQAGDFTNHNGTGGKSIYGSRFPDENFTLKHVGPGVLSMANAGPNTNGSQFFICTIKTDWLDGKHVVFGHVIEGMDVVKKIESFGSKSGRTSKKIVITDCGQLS
- assay.name: PPIase enzyme assay (chymotrypsin-coupled), CypD
Just the number please, in µM, no unit attached.

Q) Give the measured IC50 for C/C=C/C[C@@H](C)[C@@H](O)[C@H]1C(=O)N[C@@H](CC)C(=O)N(C)[C@H](C)C(=O)N(CC)[C@@H](C(C)C)C(=O)N[C@@H](C(C)C)C(=O)N(C)[C@@H](CC(C)C)C(=O)N[C@@H](C)C(=O)N[C@H](C)C(=O)N(C)[C@@H](CC(C)C)C(=O)N(C)[C@@H](CC(C)C)C(=O)N(C)[C@@H](C(C)C)C(=O)N1C [Alisporivir, alisporivir, reference compound]
A) 0.03

Q) # return recorded IC50 for entry CCOC(=O)CNC(=O)NC1CCc2ccc(N)cc21 (centres unmarked)
A) 12.8

----------
- system.under.test: CypA (Homo sapiens, UniProt P62937)
- Sequence (P62937 whole entry): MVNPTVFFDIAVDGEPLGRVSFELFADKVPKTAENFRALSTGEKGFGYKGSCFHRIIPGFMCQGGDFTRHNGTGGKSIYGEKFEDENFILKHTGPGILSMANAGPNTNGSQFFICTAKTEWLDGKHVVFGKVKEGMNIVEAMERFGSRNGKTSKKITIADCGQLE
readout.type: pIC50
In simple prose, pIC50 is minus the logarithm base ten of a concentration in moles per litre.

compound: CSc1ccccc1C1CCCN1C(=O)C(NC(=O)NCc1ccc(N)cc1)c1ccccc1 (stereo not drawn) [Compound 31]
pIC50: 7.00

compound: CSc1ccccc1C1CCCN1C(=O)CNC(=O)NCc1ccc(N)cc1 (stereo not drawn) [Compound 27]
pIC50: 6.40

compound: CCOC(=O)CNC(=O)NC1CCc2ccc(N)cc21 (stereo not drawn) [Compound 32]
pIC50: 5.13

compound: C/C=C/C[C@@H](C)[C@@H](O)[C@H]1C(=O)N[C@@H](CC)C(=O)N(C)[C@H](C)C(=O)N(CC)[C@@H](C(C)C)C(=O)N[C@@H](C(C)C)C(=O)N(C)[C@@H](CC(C)C)C(=O)N[C@@H](C)C(=O)N[C@H](C)C(=O)N(C)[C@@H](CC(C)C)C(=O)N(C)[C@@H](CC(C)C)C(=O)N(C)[C@@H](C(C)C)C(=O)N1C [Alisporivir, alisporivir, reference compound]
pIC50: 7.15

Q) For CypA (Homo sapiens, UniProt P62937), give pIC50 of the listed compound: Nc1ccc(CNC(=O)NCC(=O)N2CCCC2c2ccccc2Cl)cc1 (stereo not drawn) [Compound 25]
A) 5.47

Q) Using CypA (Homo sapiens, UniProt P62937) as the test system, report measured pIC50 of Nc1ccc(CNC(=O)NCC(=O)N2CCCC2c2cccc3ccccc23)cc1 (stereo not drawn) [Compound 28] .
A) 5.82

----------
- system.under.test: CypD (Homo sapiens, UniProt P30405, K175I)
- assay.name: PPIase enzyme assay (chymotrypsin-coupled), CypD
- measurement.setup: read-out: CypD IC50; PPIase enzyme assay, 20 °C, mean±s.d.
readout.type: pIC50
Lab note: report pIC50 as minus log10 of the concentration in molar units, number only.

Example results:
molecule: CSc1ccccc1C1CCCN1C(=O)C(NC(=O)NCc1ccc(N)cc1)c1ccccc1 (centres unmarked)
pIC50: 6.70
--
molecule: Nc1ccc(CNC(=O)NCC(=O)N2CCCC2c2cccc3ccccc23)cc1 (centres unmarked)
pIC50: 5.85
--
molecule: Nc1ccc(CNC(=O)NCC(=O)N2CCCC2c2ccccc2Cl)cc1 (centres unmarked)
pIC50: 5.21
--
molecule: CSc1ccccc1C1CCCN1C(=O)CNC(=O)NCc1ccc(N)cc1 (centres unmarked)
pIC50: 6.22

# input for lookup
Q) Using the record for COc1ccccc1C1CCCN1C(=O)CNC(=O)NCc1ccc(N)cc1 (centres unmarked) , state its measured pIC50.
A) 4.94

----------
- system.under.test: CypB (Homo sapiens)
- Construct: hexahistidine tag (His-Tag) (C); made in house; host or cells: E. coli C41(DE3)
- Sequence (P23284 34-216): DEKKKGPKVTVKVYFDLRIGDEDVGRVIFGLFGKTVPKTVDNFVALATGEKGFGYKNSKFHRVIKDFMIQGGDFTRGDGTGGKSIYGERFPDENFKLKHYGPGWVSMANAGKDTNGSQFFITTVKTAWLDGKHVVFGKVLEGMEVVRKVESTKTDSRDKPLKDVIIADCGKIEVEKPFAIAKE
- assay.name: biochemical
- Assay type: biochemical
- measurement.setup: PPIase enzyme assay, 20 °C, mean±s.d.; read-out: CypB IC50
The following compounds are listed with their measured IC50 values.

Known results for compounds:
compound: CCOC(=O)CNC(=O)NC1CCc2ccc(N)cc21 (stereo not drawn)
IC50: 8.7 µM
//
compound: O=CN1CCCC1
IC50: > 5000 µM
//
compound: CSCCC(NC(=O)NCc1ccc(N)cc1)C(=O)N1CCCC1c1ccccc1SC.O=C(O)C(F)(F)F (stereo not drawn)
IC50: 1.9 µM
//
compound: Nc1ccc(CNC(=O)NCC(=O)N2CCCC2c2cccc3ccccc23)cc1 (stereo not drawn)
IC50: 1.8 µM
//
compound: O=C(NC(=O)c1c(F)cccc1Cl)NC1c2ccccc2-c2ccccc21 [TMN-355, reference compound]
IC50: > 100 µM

Q) Please give measured IC50 of the following entry: CSc1ccccc1C1CCCN1C(=O)C(NC(=O)NCc1ccc(N)cc1)c1ccccc1 (stereo not drawn)
A) 0.08 µM

Q) Assign IC50 to the following record: Nc1ccc(CNC(=O)NCC(=O)N2CCCC2)cc1
A) > 500 µM

Q) For COc1ccccc1C1CCCN1C(=O)CNC(=O)NCc1ccc(N)cc1 (stereo not drawn) , write its IC50.
A) 1.2 µM

Q) Provide one value: measured IC50 of Nc1ccc(CNC(=O)NCC(=O)N2CCCC2c2ccccc2Cl)cc1 (stereo not drawn)
A) 3.7 µM

----------
- system.under.test: UniProtKB P05177
- Sequence (P05177 whole entry): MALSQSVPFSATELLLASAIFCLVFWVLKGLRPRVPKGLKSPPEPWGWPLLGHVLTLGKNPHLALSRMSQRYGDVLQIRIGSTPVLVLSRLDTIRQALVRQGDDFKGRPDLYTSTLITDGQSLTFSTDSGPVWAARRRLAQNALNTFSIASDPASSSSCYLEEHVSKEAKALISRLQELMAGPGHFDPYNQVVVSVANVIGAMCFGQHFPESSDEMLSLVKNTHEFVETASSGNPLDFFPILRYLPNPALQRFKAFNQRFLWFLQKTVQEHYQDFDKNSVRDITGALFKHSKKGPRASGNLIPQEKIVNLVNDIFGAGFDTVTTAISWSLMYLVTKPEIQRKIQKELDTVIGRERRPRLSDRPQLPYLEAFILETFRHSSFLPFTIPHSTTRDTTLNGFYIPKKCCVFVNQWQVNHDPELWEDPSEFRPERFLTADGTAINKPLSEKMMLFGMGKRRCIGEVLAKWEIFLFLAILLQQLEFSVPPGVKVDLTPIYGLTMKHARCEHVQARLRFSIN
- assay.name: Cytochrome P450 enzyme inhibition assay, CYP1A2
- Assay type: in vitro ADME
- Design: incubated with human hepatic microsomal fractions and NADPH; from tissue; host or cells: human hepatic microsomal fractions
- measurement.setup: human hepatic microsomal fractions, up to 25 μM
readout.type: IC50

Q) For the compound CSCCC(NC(=O)NCc1ccc(N)cc1)C(=O)N1CCCC1c1ccccc1SC.O=C(O)C(F)(F)F (stereo not shown) , report IC50.
A) > 25 µM

----------
- assay.name: in vitro
- measurement.setup: human
readout.type: CC50 at 72 h
Reply with the number, then its unit.

Q) Supply measured CC50 at 72 h of C/C=C/C[C@@H](C)[C@@H](O)[C@H]1C(=O)N[C@@H](CC)C(=O)N(C)[C@H](C)C(=O)N(CC)[C@@H](C(C)C)C(=O)N[C@@H](C(C)C)C(=O)N(C)[C@@H](CC(C)C)C(=O)N[C@@H](C)C(=O)N[C@H](C)C(=O)N(C)[C@@H](CC(C)C)C(=O)N(C)[C@@H](CC(C)C)C(=O)N(C)[C@@H](C(C)C)C(=O)N1C [Alisporivir, alisporivir, reference compound] in your reply.
A) 9.7 µM

----------
- Tested on: Huh7 cells
- assay.name: Cellular toxicity in Huh7 replicon cells
- measurement.setup: read-out: HCV genotype 1b replicon CC50; Huh7 cells
Each entry below lists one item and its recorded CC50 value.

Take a look at these entries with their results.
compound: Nc1ccc(CNC(=O)NCC(=O)N2CCCC2c2ccccc2Br)cc1 (centres unmarked)
readout.type: CC50
reported: > 100 µM
--
compound: CSc1ccccc1C1CCCN1C(=O)CNC(=O)NCc1ccc(N)cc1 (centres unmarked)
readout.type: CC50
reported: > 100 µM
--
compound: CSCCC(NC(=O)NCc1ccc(N)cc1)C(=O)N1CCCC1c1ccccc1SC.O=C(O)C(F)(F)F (centres unmarked)
readout.type: CC50
reported: > 100 µM
--
compound: CSc1ccccc1C1CCCN1C(=O)C(NC(=O)NCc1ccc(N)cc1)c1ccccc1 (centres unmarked)
readout.type: CC50
reported: > 100 µM

// moving on: another record for CC50
Q) Given O=C(NC(=O)c1c(F)cccc1Cl)NC1c2ccccc2-c2ccccc21 [TMN-355, reference compound] , respond with its CC50.
A) 4.48 µM

----------
- Test system: HCoV-229E
- assay.name: Anti-human coronavirus 229E activity in MRC5 cells
- Format: cell-based
- measurement.setup: Human coronavirus 229E, 72 h, viral cytopathic effect
Listing: pEC50 of selected molecules
Quick note: pEC50 means taking -log10 of the concentration in moles per liter.

molecule: CCOC(=O)CNC(=O)NC1CCc2ccc(N)cc21 (centres unmarked)
readout.type: pEC50
reported: 4.15

Q) Specify pEC50 for C/C=C/C[C@@H](C)[C@@H](O)[C@H]1C(=O)N[C@@H](CC)C(=O)N(C)[C@H](C)C(=O)N(CC)[C@@H](C(C)C)C(=O)N[C@@H](C(C)C)C(=O)N(C)[C@@H](CC(C)C)C(=O)N[C@@H](C)C(=O)N[C@H](C)C(=O)N(C)[C@@H](CC(C)C)C(=O)N(C)[C@@H](CC(C)C)C(=O)N(C)[C@@H](C(C)C)C(=O)N1C [Alisporivir, alisporivir, reference compound] and stop.
A) 5.59

The reported numbers originate from paper PMC5036131.
